// provenance: patent US7358276B2

Some molecules, each annotated with its measured melting point.
valueKind: melting point (°C)

1. CCC(C(N)=O)N1C[C@H](CC(C)(F)F)CC1=O (stereo partly shown)
110.9
2. CCC(C(N)=O)N1CC(c2nccs2)CC1=O (stereo not shown)
94.3
3. CC[C@@H](C(=O)NC)N1CC(CI)CC1=O (stereo partly shown)
66.6
4. CC[C@@H](C(N)=O)N1CC(c2cccs2)CC1=O (stereo partly shown)
69.3
5. CC[C@@H](C(N)=O)N1CC(CC(C)=O)CC1=O (stereo partly shown)
90.6
6. CCC(C(N)=O)N1CC(CI)CC1=O (stereo not shown)
171.7
7. CCC(C(N)=O)N1CC(CCCc2ccccc2)CC1=O (stereo not shown)
92.5
8. CC[C@@H](C(N)=O)N1CC(CC2CC2)CC1=O (stereo partly shown) [Compound 221]
93.9
9. CCC(C(N)=O)N1CC(C#CBr)CC1=O (stereo not shown) [Compound 264]
173.2
10. C=C[C@@H]1CC(=O)N([C@@H](CC)C(N)=O)C1
79

====

valueKind: melting point (°C)

1) CC[C@@H](C(N)=O)N1CC(c2ccc(N=[N+]=[N-])cc2)CC1=O (some centres unmarked) [Compound 81]
91.4
2) C=CC1CC(=O)N(C(CC)C(N)=O)C1 (centres unmarked) [Compound 41]
120.5
3) CC[C@@H](C(N)=O)N1CC(c2cc(Br)cc(Br)c2)CC1=O (some centres unmarked) [Compound 198]
118.6
4) CC[C@@H](C(N)=O)N1CC(c2cccc(Br)c2)CC1=O (some centres unmarked) [Compound 180]
99.6

====

valueKind: melting point

1. CC[C@@H](C(N)=O)N1CC(CCC(F)(F)F)CC1=O (stereo partly shown) [Compound 214]
120.9 °C
2. CCC(C(N)=O)N1CC(c2ccc(Cl)c(Cl)c2)CC1=O (stereo not shown) [Compound 187]
177.9 °C
3. CCC(C(N)=O)N1CC(c2cc(C(F)(F)F)cc(C(F)(F)F)c2)CC1=O (stereo not shown)
148.6 °C
4. CC[C@@H](C(N)=O)N1CC(Cn2cnnn2)CC1=O (stereo partly shown)
82.3 °C
5. CCCCC1CC(=O)N(C(CC)C(N)=O)C1 (stereo not shown)
108.8 °C
6. CCC(C(N)=O)N1CC(c2cccnc2)CC1=O (stereo not shown)
104.3 °C
7. CC[C@H](C(N)=O)N1CC(c2cccs2)CC1=O (stereo partly shown)
84 °C
8. CCC(C(N)=O)N1CC(c2ccccc2F)CC1=O (stereo not shown) [Compound 209]
123.7 °C
9. CC[C@@H](C(N)=O)N1CC(CCc2ccccc2)CC1=O (stereo partly shown) [Compound 176]
100.2 °C
10. C=CCC1CC(=O)N([C@@H](CC)C(N)=O)C1 (stereo partly shown) [Compound 228]
58.3 °C
